target: hemagglutinin (HA) of live influenza A/Wisconsin/67/05 (H3N2) virus (influenza A virus A/Wisconsin/67/2005 …); assay: cell-based or functional assay
Listing of recorded % Neutralization by entry.

- BINDER: "TCN-554 (5277_M05) (antibody, V domains shown) VH: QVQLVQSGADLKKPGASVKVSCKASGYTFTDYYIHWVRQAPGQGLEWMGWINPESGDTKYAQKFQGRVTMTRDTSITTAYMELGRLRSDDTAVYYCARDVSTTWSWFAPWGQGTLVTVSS VL: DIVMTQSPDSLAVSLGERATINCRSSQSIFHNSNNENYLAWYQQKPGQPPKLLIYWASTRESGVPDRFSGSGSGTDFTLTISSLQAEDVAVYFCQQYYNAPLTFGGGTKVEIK"
  % Neutralization: "100%"
- BINDER: "TCN-544 (5082_A19) (antibody, V domains shown) VH: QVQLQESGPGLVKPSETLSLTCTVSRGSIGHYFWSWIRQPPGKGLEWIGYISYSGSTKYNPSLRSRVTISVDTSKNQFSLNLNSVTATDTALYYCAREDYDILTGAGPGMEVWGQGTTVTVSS VL: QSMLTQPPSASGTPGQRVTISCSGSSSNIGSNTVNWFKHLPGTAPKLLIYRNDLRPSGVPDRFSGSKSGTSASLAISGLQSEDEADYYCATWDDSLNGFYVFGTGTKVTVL"
  % Neutralization: "97%"
- BINDER: "TCN-552 (5249_I23) (antibody, V domains shown) VH: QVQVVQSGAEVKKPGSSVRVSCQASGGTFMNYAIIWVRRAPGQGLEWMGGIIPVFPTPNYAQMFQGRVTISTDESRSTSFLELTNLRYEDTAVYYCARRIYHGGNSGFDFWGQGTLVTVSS VL: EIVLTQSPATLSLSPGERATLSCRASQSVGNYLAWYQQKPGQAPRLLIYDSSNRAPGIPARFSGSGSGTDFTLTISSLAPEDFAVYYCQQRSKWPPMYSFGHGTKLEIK"
  % Neutralization: "14%"
- BINDER: "TCN-540 (5060_F05) (antibody, V domains shown) VH: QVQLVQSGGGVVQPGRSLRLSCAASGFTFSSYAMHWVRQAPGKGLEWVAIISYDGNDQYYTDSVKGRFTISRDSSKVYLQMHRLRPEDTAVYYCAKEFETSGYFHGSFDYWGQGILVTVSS VL: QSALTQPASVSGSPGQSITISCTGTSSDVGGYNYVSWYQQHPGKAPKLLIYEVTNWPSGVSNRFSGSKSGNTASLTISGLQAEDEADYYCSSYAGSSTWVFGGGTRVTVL"
  % Neutralization: "98%"
- BINDER: "TCN-553 (5261_C18) (antibody, V domains shown) VH: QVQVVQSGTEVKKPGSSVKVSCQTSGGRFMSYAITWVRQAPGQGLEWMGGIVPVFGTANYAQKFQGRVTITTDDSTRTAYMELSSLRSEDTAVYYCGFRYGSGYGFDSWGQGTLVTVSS VL: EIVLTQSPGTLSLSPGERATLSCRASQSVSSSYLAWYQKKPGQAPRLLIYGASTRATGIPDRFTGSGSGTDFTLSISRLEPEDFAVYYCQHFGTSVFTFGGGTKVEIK"
  % Neutralization: "5%"
